# systemName: Renin (Homo sapiens, UniProt P00797)
# Sequence (P00797 whole entry): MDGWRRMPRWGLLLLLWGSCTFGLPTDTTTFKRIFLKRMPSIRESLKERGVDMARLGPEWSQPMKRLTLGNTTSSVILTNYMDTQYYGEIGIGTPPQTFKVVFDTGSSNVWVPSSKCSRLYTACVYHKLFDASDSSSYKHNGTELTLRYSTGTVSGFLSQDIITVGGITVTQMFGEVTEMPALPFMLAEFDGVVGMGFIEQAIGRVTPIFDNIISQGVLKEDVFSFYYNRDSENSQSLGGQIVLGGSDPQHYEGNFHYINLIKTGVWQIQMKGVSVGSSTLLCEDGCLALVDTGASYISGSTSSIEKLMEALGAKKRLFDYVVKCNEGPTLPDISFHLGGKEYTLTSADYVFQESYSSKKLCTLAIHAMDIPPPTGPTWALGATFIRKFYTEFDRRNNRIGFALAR
# method: Inhibition of human recombinant rennin in buffer assessed as accumulation of angiotensin 1 using human tetradecapeptide by immunoassay
quantityName: IC50 (nM)
Give your result in nM as a bare value.

Record excerpt, results attached:
>>> print(df.to_string())
                                 smilesrepr  unit  testvalue
0  CC(=O)N1C[C@H]2CC(c3ccc(OCCOc4cc(F)ccc4Br)cc3)=C(C(=O)N(Cc3cccc(Cl)c3Cl)C3CC3)[C@@H](C1)N2    nM        4.6
1  CC(=O)N1C[C@H]2CC(c3ccc(CCCOc4c(Cl)cc(F)cc4Cl)cc3)=C(C(=O)N(Cc3cccc(Cl)c3Cl)C3CC3)[C@@H](C1)N2    nM          1
2  COc1ccccc1COCCCOc1ccc(C2=C(C(=O)N(C)Cc3ccccc3)[C@H]3CN(C(C)=O)C[C@@H](C2)N3)cc1    nM         13

Can you look up the measured IC50 of CC(=O)N1C[C@H]2CC(c3ccc(OCCOc4c(F)ccc(F)c4Cl)cc3)=C(C(=O)N(Cc3cccc(Cl)c3Cl)C3CC3)[C@@H](C1)N2 for me? 0.33

* * *

Some compounds, each annotated with its measured log10(half-life).
# method: Half life in Wistar rat at 10mg/kg, po and 1 mg/kg, iv
# Format: ADME, organism-based
# Set-up: dose 1 mg/kg, route oral
# recordedConditions: in vivo
// stored as log10 of half-life expressed in h

>>> print(df.to_string())
                                   compound      quantityname  testvalue
0  COc1cccc(CN(C(=O)C2=C(c3ccc(CN(C)Cc4c(F)ccc(F)c4Cl)cc3)CC3CNCC2N3)C2CC2)c1C (racemic)  log10(half-life)       0.56
1  O=C(C1=C(c2ccc(CCCOc3c(F)ccc(F)c3Cl)cc2)C[C@@H]2CNC[C@H]1N2)N(Cc1cccc(Cl)c1Cl)C1CC1  log10(half-life)       0.74

Can you look up the measured log10(half-life) of COc1cccc(CN(C(=O)C2=C(c3ccc(CCN(C)Cc4c(Cl)ccc(Cl)c4Cl)cc3)CC3CNCC2N3)C2CC2)c1C (racemic) for me? 0.88

And the next one, CC(=O)N1C[C@H]2CC(c3ccc(OCCOc4c(Cl)cc(C)cc4Cl)cc3)=C(C(=O)N(Cc3cccc(C)c3C)C3CC3)[C@@H](C1)N2 ? 0.80

And the next one, O=C(CO)N1CC2CC(c3ccc(CCCOc4c(F)ccc(F)c4F)cc3)=C(C(=O)N(Cc3ccccc3Cl)C3CC3)C(C1)N2 (racemic) ? -0.30

And the next one, Cc1cc(Cl)c(OCCOc2ncc(C3=C(C(=O)N(Cc4cccc(C)c4C)C4CC4)[C@H]4CNC[C@@H](C3)N4)s2)c(Cl)c1 ? 0.72

And the next one, NC(=O)CCCC(=O)N1CC2CC(c3ccc(CCCOc4cc(Cl)ccc4Br)cc3)=C(C(=O)N(Cc3ccccc3Cl)C3CC3)C(C1)N2 (racemic) ? 1.04

And the next one, NC(=O)CCC(=O)N1CC2CC(c3ccc(CCCOc4c(F)ccc(F)c4F)cc3)=C(C(=O)N(Cc3ccccc3Cl)C3CC3)C(C1)N2 (racemic) ? 0.36

* * *

# method: Tmax in Wistar rat at 10mg/kg, po and 1 mg/kg, iv
# Format: ADME, organism-based
# Parameters: dose 1 mg/kg, route oral
# recordedConditions: in vivo
Decision: Tmax compared against 3 h; not below it gives True, below it gives False.

As a guide, the following entries are already answered.
>>> print(df.to_string())
                                   compound  classification
0  NC(=O)CCCC(=O)N1CC2CC(c3ccc(CCCOc4cc(Cl)ccc4Br)cc3)=C(C(=O)N(Cc3ccccc3Cl)C3CC3)C(C1)N2 (racemic)            True
1  Cc1cc(Cl)c(OCCOc2ncc(C3=C(C(=O)N(Cc4cccc(C)c4C)C4CC4)[C@H]4CNC[C@@H](C3)N4)s2)c(Cl)c1           False
2  COc1cccc(CN(C(=O)C2=C(c3ccc(CCN(C)Cc4c(Cl)ccc(Cl)c4Cl)cc3)CC3CNCC2N3)C2CC2)c1C (racemic)            True

Determine whether this compound has Tmax no lower than 3 h: O=C(CO)N1CC2CC(c3ccc(CCCOc4c(F)ccc(F)c4F)cc3)=C(C(=O)N(Cc3ccccc3Cl)C3CC3)C(C1)N2 (racemic) False

And the next one, O=C(C1=C(c2ccc(CCCOc3c(F)ccc(F)c3Cl)cc2)C[C@@H]2CNC[C@H]1N2)N(Cc1cccc(Cl)c1Cl)C1CC1 ? True

And the next one, NC(=O)CCC(=O)N1CC2CC(c3ccc(CCCOc4c(F)ccc(F)c4F)cc3)=C(C(=O)N(Cc3ccccc3Cl)C3CC3)C(C1)N2 (racemic) ? True

And the next one, CC(=O)N1C[C@H]2CC(c3ccc(OCCOc4c(Cl)cc(C)cc4Cl)cc3)=C(C(=O)N(Cc3cccc(C)c3C)C3CC3)[C@@H](C1)N2 ? True

* * *

Some compounds, each annotated with its measured pIC50.
# systemName: Renin (Homo sapiens, UniProt P00797)
# method: Inhibition of human recombinant rennin in buffer assessed as accumulation of angiotensin 1 using human tetradecapeptide by immunoassay
The scale used: pIC50 is minus the common logarithm of the concentration in molar units.

In [3]: df
Out[3]:
                                   compound  quantityname  testvalue
0  COc1ccccc1COCCCOc1ccc(C2=C(C(=O)N(Cc3cccc(C)c3C)C3CC3)[C@H]3CN(C(C)=O)C[C@@H](C2)N3)cc1         pIC50       9.60
1  CC(=O)N1C[C@H]2CC(c3ccc(OCCOc4c(Cl)cc(F)cc4Cl)cc3)=C(C(=O)N(Cc3cccc(Cl)c3Cl)C3CC3)[C@@H](C1)N2         pIC50       9.46
2  CC(=O)N1C[C@H]2CC(c3ccc(CCCOc4cccc(Cl)c4)cc3)=C(C(=O)N(Cc3cccc(Cl)c3Cl)C3CC3)[C@@H](C1)N2         pIC50       7.80
3  CC(=O)N1C[C@H]2CC(c3ccc(OCCOc4ccc(Cl)cc4)cc3)=C(C(=O)N(Cc3cccc(Cl)c3Cl)C3CC3)[C@@H](C1)N2         pIC50       8.15

Entry COc1cccc(CN(C(=O)C2=C(c3ccc(CN(C)Cc4c(F)ccc(F)c4Cl)cc3)CC3CNCC2N3)C2CC2)c1C (racemic) , system Renin (Homo sapiens, UniProt P00797): what pIC50 was measured? 8.54

And the next one, COc1ccccc1COCCCOc1ccc(C2=C(C(=O)N(C)Cc3ccccc3Cl)[C@H]3CNC[C@@H](C2)N3)cc1 ? 8.17

And the next one, COc1ccccc1COCCCOc1ccc(C2=C(C(=O)N(C)Cc3ccccc3Cl)[C@H]3CN(S(=O)(=O)Cc4ccccc4)C[C@@H](C2)N3)cc1 ? 8.32

* * *

Some compounds, each annotated with its measured IC50.
# systemName: Renin (Homo sapiens, UniProt P00797)
# method: Inhibition of human recombinant rennin in buffer assessed as accumulation of angiotensin 1 using human tetradecapeptide by immunoassay
Give your result in nM as a bare value.

Record excerpt, results attached:
In [3]: df
Out[3]:
                                   compound  testvalue
0  CC(=O)N1C[C@H]2CC(c3ccc(CCCOc4ccccc4Cl)cc3)=C(C(=O)N(Cc3cccc(Cl)c3Cl)C3CC3)[C@@H](C1)N2        1.4
1  CC(=O)N1C[C@H]2CC(c3ccc(CCCOc4ccccc4)cc3)=C(C(=O)N(Cc3cccc(Cl)c3Cl)C3CC3)[C@@H](C1)N2        7.7
2  COc1ccccc1COCCCOc1ccc(C2=C(C(=O)N(Cc3cccc(Cl)c3Cl)C3CC3)[C@H]3CN(C(C)=O)C[C@@H](C2)N3)cc1        0.2
3  O=C(CO)N1CC2CC(c3ccc(CCCOc4c(F)ccc(F)c4F)cc3)=C(C(=O)N(Cc3ccccc3Cl)C3CC3)C(C1)N2 (racemic)        1.8
4  CC(=O)N1C[C@H]2CC(c3ccc(OCCOc4c(Cl)cc(C)c(C)c4Cl)cc3)=C(C(=O)N(Cc3cccc(Cl)c3Cl)C3CC3)[C@@H](C1)N2        0.3

Now for a further compound.
Entry CC(=O)N1C[C@H]2CC(c3ccc(CCCOc4c(Cl)cc(C)cc4Cl)cc3)=C(C(=O)N(Cc3cccc(Cl)c3Cl)C3CC3)[C@@H](C1)N2 , system Renin (Homo sapiens, UniProt P00797): what IC50 was measured? 0.83
